Tested on: TAB165
assay_info: qHTS profiling for inhibitors of Plasmodium falciparum proliferation (AID 504749); note: nearly all actives have a fitted effect of over 60% in size
test_conditions: P. falciparum in erythrocytes, SYBR Green DNA, 72 h; series mostly up to 28.7 µM
Procedure: NIH National Institute of Allergy and Infectious Diseases [NIAID] NIH Chemical Genomics Center [NCGC] […] Because mature erythrocytes lack DNA, only Plasmodium-derived DNA is detected. NCGC Assay Protocol Summary: The SYBR Green viability assay was adapted from a method described previously (Plouffe et al., 2008). […] The following morning, fluorescence intensity at 485(14) nm excitation and 535(25) nm emission wavelengths was measured on an EnVision (Perkin Elmer) plate reader. […]
Records with an inconclusive call do not appear. Active and inactive are the calls of the source. Calls come from the whole dose curve; as a rule, active = well fitted inhibition curve with a large enough effect; inconclusive = small, poorly fitted or top-dose-only effect; inactive = flat fitted curve, though single readings scatter.
Response enum: Yes = active, No = inactive

Some solved cases for reference:
INSERT INTO results (smiles_repr, target_under_test, class) VALUES
  ('Cc1ccc(N(CC2=NCCN2)c2cccc(O)c2)cc1', 'TAB165', 'No'),
  ('Nc1nc2c(ncn2COCCO)c(=O)[nH]1', 'TAB165', 'No'),
  ('O=c1n(CCCN2CCN(c3cccc(Cl)c3)CC2)nc2ccccn12', 'TAB165', 'No'),
  ('CCOC(=O)C1=C[C@]2(CC)CCCN3CCc4c(n1c1ccccc41)[C@@H]32', 'TAB165', 'Yes');

Problem: // param item: NCCc1ccc(O)c(O)c1 ; yields the recorded call
Result: No

Problem: // param item: CCOC(=O)N1CCC(=C2c3ccc(Cl)cc3CCc3cccnc32)CC1 ; yields the recorded call
Result: Yes

Problem: // param item: O=NN(CCCl)C(=O)NCCCl ; yields the recorded call
Result: No
